Biological target: Tyrosine-protein kinase JAK2 (Homo sapiens) (UniProt O60674);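 also: mean JAK2 inhibition from the GSK PKIS screen, compounds tested at 1 µM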
Sequence (O60674 whole entry): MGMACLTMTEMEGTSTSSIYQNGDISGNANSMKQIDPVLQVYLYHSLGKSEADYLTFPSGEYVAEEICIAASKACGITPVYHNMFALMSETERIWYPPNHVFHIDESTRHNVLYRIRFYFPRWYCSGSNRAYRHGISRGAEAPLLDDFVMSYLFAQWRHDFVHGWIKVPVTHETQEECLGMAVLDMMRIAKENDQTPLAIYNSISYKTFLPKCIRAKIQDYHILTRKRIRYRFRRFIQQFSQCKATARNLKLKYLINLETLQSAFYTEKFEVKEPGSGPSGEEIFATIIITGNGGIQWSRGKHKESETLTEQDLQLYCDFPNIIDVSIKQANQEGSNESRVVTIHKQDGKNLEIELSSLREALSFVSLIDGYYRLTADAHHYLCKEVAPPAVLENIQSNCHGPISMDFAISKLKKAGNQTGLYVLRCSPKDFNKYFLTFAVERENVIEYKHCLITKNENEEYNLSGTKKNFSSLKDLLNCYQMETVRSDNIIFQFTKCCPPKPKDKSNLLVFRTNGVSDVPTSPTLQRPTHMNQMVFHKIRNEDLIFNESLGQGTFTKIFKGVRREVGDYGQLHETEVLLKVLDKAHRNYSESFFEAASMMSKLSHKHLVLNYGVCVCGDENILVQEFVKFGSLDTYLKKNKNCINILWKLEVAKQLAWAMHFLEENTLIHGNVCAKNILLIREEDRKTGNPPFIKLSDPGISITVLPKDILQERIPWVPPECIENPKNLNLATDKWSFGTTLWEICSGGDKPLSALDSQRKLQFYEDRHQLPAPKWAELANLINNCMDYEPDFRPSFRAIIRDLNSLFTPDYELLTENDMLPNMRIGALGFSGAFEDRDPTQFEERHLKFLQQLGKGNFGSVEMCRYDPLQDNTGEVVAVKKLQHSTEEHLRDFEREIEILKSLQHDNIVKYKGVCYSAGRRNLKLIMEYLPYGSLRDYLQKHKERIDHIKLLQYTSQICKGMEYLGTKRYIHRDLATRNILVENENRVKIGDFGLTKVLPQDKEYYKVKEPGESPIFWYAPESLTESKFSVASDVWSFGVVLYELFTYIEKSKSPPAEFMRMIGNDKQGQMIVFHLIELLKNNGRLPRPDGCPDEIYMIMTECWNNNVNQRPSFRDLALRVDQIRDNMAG
Details: at 1 µM
Property: inhibition; scope: individual compounds
# number only, unit % dropped from output

// query inhibition value for entry `COc1cc(N2CCN(C(C)C)CC2)ccc1Nc1nc(Nc2cccc3ncccc23)c2cc[nH]c2n1`
0.72

Field entry: `CNC(=O)c1ncccc1Nc1nc(Nc2cc3c(cc2OC)CCCN3C(=O)CN(C)C)nc2[nH]ccc12`
1.63

Field entry: `CN1CCC(n2cnc(-c3ccc(F)cc3)c2-c2ccnc(NCCO)n2)CC1`
1.42

###

Target: Ephrin type-B receptor 4 (Homo sapiens) (UniProt P54760);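 also: each value is a mean percent inhibition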
Sequence (P54760 whole entry): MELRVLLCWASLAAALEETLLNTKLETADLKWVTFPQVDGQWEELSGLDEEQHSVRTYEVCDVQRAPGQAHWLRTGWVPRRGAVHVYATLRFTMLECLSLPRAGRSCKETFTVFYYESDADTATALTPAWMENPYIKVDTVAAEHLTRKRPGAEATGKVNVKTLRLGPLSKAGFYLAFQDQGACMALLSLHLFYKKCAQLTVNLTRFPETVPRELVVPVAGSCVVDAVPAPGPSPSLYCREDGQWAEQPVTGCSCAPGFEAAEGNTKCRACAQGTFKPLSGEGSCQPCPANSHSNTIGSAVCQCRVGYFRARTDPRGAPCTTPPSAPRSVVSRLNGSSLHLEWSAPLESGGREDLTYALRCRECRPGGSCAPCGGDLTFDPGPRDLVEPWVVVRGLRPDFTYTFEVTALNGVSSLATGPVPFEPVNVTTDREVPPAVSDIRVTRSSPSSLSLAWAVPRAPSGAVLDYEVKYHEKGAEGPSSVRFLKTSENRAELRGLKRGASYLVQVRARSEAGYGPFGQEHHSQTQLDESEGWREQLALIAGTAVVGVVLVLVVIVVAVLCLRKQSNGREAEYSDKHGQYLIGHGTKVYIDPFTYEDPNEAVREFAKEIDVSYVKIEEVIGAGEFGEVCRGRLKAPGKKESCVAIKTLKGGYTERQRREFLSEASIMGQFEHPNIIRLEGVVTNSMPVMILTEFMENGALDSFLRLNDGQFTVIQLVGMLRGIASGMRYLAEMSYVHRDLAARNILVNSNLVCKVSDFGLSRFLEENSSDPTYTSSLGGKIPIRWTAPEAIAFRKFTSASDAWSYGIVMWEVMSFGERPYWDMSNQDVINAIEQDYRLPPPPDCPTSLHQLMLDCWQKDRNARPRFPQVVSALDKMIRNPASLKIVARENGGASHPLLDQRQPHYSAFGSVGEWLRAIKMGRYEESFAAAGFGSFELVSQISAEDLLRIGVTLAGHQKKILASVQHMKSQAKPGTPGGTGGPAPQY
Conditions: at 0.1 µM
Property: inhibition; scope: individual compounds
# number only, unit % dropped from output

Worked examples, 3 compounds total:
CN1CCC(n2cnc(-c3ccc(F)cc3)c2-c2ccnc(NCCO)n2)CC1 1.85
COC(=O)Nc1nc2ccc(Oc3ccc(NC(=O)Nc4cc(C(F)(F)F)ccc4F)cc3)cc2s1 29.6
Fc1cccc(COc2ccc(Nc3ncncc3C#Cc3ccccc3)cc2Cl)c1 1.3

// query inhibition value for entry `CCN1CCC(C(=O)Nc2n[nH]c3nnc(-c4cccc(F)c4F)cc23)CC1`
0.49

Field entry: `Cc1nnc(-c2cccc(-c3ccc(C(=O)NCC4CC4)cc3)c2)o1`
1.46

Field entry: `NS(=O)(=O)c1cccc(N/C=C2\C(=O)Nc3ccccc32)c1`
4.23

Field entry: `CS(=O)(=O)CCNCc1ccc(-c2ccc3ncnc(Nc4ccc(OCc5cccc(C(F)(F)F)c5)cc4)c3c2)o1`
0.6

Field entry: `CC1(C)CC(n2cnc(-c3ccc(F)cc3)c2-c2ccnc(N)n2)CC(C)(C)N1`
0.27

Field entry: `CCCNc1cccc(-n2ncc3c(N/N=C/c4ccncc4)ncnc32)c1`
1.55

Field entry: `N#Cc1ccc2c(-c3ccnc(NC4CC4)n3)c(-c3ccc(F)cc3)nn2c1`
-0.62
